Field: pIC50. Provide a value for each of the compounds that follow.
Target: human HSL (Homo sapiens)
Construct: generate a full length human HSL ORF with a 3′-His6 tag
Experiment: Human Hormone-Sensitive Lipase (HSL) enzyme inhibition assay (colorimetric, DMPT substrate)
Settings: human full length HSL-His6, 2,3-dimercapto-1-propanol tributyrate substrate, 37° C. 20 minutes, absorbance at 405 nm; read-out: HSL hum IC50
Numbers only, as −log10 of the molar value.

Lab note: each compound below needs its pIC50 filled in.
1. COCC[C@]1(O)CC[C@]2(CCN(c3ccc(OC(F)(F)F)cc3)C2=O)CC1
2. CCSC[C@]1(O)CC[C@]2(CCN(c3ccc(OCC(F)(F)F)cc3)C2=O)CC1
3. CCc1ccc(N2CC[C@]3(CC[C@@](O)(COCCOC)CC3)C2=O)cc1
4. O=C1N(c2ccc(OC(F)(F)F)cc2)CC[C@]12CC=CCC2
5. C[C@H](Oc1ccc(N2CC[C@]3(CC[C@](O)(COCC(F)F)CC3)C2=O)cc1)C(F)(F)F
6. C[C@H](Oc1ccc(N2CC[C@]3(CC[C@](O)(COCC(F)F)CC3)C2=O)cn1)C(F)(F)F
7. COC[C@]1(O)CC[C@]2(CCN(c3ccc(OC(C)C)cc3)C2=O)CC1

-- reply
[7.52, 8.00, 6.89, 6.70, 6.23, 6.26, 7.30]

====

Field: pIC50. Provide a value for each of the compounds that follow.
Molecular target: human HSL (Homo sapiens)
Construct: generate a full length human HSL ORF with a 3′-His6 tag
Sequence (Q05469 1-1076): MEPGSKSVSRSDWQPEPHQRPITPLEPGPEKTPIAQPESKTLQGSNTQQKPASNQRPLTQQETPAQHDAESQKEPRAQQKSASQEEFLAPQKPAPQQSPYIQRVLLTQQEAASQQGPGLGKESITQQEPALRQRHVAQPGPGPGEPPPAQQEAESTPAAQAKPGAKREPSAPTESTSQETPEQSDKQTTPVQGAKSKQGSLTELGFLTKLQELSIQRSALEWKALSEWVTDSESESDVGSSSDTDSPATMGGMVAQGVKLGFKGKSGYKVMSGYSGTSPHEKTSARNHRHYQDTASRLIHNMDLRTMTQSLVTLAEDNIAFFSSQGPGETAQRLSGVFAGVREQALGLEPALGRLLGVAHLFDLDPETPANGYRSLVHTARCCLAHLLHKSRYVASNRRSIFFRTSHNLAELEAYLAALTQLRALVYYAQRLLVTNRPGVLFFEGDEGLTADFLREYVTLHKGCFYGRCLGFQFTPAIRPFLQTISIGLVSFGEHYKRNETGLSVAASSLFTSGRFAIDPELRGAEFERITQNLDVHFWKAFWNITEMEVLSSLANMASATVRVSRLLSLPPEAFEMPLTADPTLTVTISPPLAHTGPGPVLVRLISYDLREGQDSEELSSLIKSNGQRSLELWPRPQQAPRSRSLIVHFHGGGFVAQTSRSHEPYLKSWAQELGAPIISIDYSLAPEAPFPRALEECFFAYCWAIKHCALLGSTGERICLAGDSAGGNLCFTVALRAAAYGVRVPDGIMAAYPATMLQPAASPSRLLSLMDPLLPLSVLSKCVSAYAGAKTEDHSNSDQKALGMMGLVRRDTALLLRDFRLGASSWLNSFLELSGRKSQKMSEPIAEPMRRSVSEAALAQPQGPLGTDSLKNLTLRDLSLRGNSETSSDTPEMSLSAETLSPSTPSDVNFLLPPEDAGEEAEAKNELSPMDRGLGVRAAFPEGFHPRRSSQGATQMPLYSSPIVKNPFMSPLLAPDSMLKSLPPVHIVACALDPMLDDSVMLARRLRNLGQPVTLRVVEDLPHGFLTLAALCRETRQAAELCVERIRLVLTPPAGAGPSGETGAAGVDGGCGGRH
Assay: Human Hormone-Sensitive Lipase (HSL) enzyme inhibition assay (colorimetric, DMPT substrate)
Settings: human full length HSL-His6, 2,3-dimercapto-1-propanol tributyrate substrate, 37° C. 20 minutes, absorbance at 405 nm; read-out: HSL hum IC50
One number for each entry, as −log10 of the molar value.

compound=CCC[C@]1(O)CC[C@@]2(CCN(c3ccc(CC(F)(F)F)cc3)C2=O)CC1 tested_on="human HSL (Homo sapiens)" property=pIC50 observed_value=6.34
compound="CC(O)C1CCC2(CC1)CCN(c1ccc(C(C)(C)C)cc1)C2=O (centres unmarked) [Example 357]" tested_on="human HSL (Homo sapiens)" property=pIC50 observed_value=7.30
compound="CCC[C@]1(O)CC[C@]2(CCN(c3ccc([C@@H](O)C(F)(F)F)cc3)C2=O)CC1 [Example 133b]" tested_on="human HSL (Homo sapiens)" property=pIC50 observed_value=7.52
compound=CCOC[C@]1(O)CC[C@]2(CCN(c3ccc(OC(F)(F)F)cc3)C2=O)CC1 tested_on="human HSL (Homo sapiens)" property=pIC50 observed_value=7.70
compound=CCCC[C@]1(O)CC[C@@]2(CCN(c3ccc(OCCOC)cc3)C2=O)CC1 tested_on="human HSL (Homo sapiens)" property=pIC50 observed_value=5.74

Lab note: each compound below needs its pIC50 filled in.
1. CCC[C@]1(O)CC[C@]2(CCN(c3ccc(OCCCOC)cc3)C2=O)CC1
2. CC(OC[C@]1(O)CC[C@]2(CCN(c3ccc(OCC(F)(F)F)cc3)C2=O)CC1)C(F)(F)F (some centres unmarked)
3. CC(C)(C)c1ccc(N2CC[C@]3(CC[C@@H](C(O)c4ccn[nH]4)CC3)C2=O)cc1 (some centres unmarked)

-- reply
[7.10, 8.00, 7.52]
